B1: WDR41 (parent)
chain: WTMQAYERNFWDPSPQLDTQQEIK

variants of: B1; test: protein stability index of a GFP-peptide fusion (GPS, HEK-293T) (PSI 1-6); higher = more stable; conditions: c terminus: a fixed tail appended;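 also: lentivirally expressed fusions sorted by FACS into six bins by GFP to DsRed ratio, PSI derived from sequencing read proportions per bin multiplied by bin number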
Would you mind classing the entries by protein stability index? Ranges: c1: < 2; c2: ≥ 2 and < 3; c3: ≥ 3

* Q16D | c2
* K24L | c1
* N9M | c1
* E22H | c1
* R8D | c3
* E7T | c2
* Q16C | c2
* Q20V | c2
* M3Y | c2
* M3V | c3
* W11G | c3
* E7G | c2
* W11S | c3
* T19L | c2
* F10V | c3
* T19E | c2
* W11I | c3
* I23W | c2
* Q16M | c1
* M3F | c2
* K24W | c1
* E22T | c2
* D12R | c3
* N9P | c2
* R8A | c2
* L17T | c2
* D12N | c3
* W1H | c3
* S14I | c2
* N9F | c2
* K24H | c2
* Q16W | c1
* T2L | c1
* T19F | c1
* W1S | c3
* T19H | c2
* T2Y | c2
* R8G | c2
* A5L | c2
* P15A | c2
* I23Y | c2
* T2F | c1
* E22D | c1
* Q20N | c2
* T19A | c2
* Q21V | c2
* E7V | c2
* W1E | c3
* W11C | c3
* L17A | c2
* K24S | c2
* T19V | c2
* R8Q | c3
* Y6F | c2
* S14T | c2
* P15H | c2
* W11R | c3
* R8Y | c2
* A5Y | c2
* D12V | c3
* Q4N | c1
* F10D | c3
* N9R | c1
* E22P | c2
* Q20L | c2
* M3T | c2
* F10P | c3
* P15V | c2
* D18G | c2
* Q16N | c2
* D18I | c2
* D18A | c2
* I23K | c3
* Q20S | c2
* S14L | c2
* T19M | c2
* D12P | c3
